B1: HDV Ribozyme (parent)
chain: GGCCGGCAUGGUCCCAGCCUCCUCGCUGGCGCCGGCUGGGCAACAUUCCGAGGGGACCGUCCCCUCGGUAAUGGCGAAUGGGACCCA

Variants of: B1
Experiment: self-cleavage, relative activity (ratio to wild type); higher = more cleavage; co-transcriptional
quantity.name: self-cleavage
I'd appreciate a reply containing only the number, no unit.

Consider the reported self-cleavage for these variants:
A51C A87U; 0.881
U60C G76U; 1.05
U9A C44G; 0.914

Exercise: Recorded self-cleavage of U20G G50U , please.
Solution: 0.18

Exercise: Same question for C49U A70C please.
Solution: 0.782

Exercise: Same question for G38C G76U please.
Solution: 0.47

Exercise: Same question for C3G C57U please.
Solution: 0.75

Exercise: Same question for G29C A45C please.
Solution: 0.111

Exercise: Same question for G5A C13U please.
Solution: 0.107

Exercise: Same question for G54A G73A please.
Solution: 0.394

Exercise: Same question for G1A C32A please.
Solution: 0.0386
